Target: T1, recombinant human TIGIT (human, UniProt Q495A1 22-141, limits assumed)
T1 construct: recombinant human TIGIT used in Carterra SPR; also called hTIGIT
T1 sequence (looked up): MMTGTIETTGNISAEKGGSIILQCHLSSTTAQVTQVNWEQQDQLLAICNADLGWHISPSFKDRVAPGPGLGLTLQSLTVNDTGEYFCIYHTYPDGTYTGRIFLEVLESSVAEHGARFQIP
Test: SPR Carterra, average
MEASUREMENT_TYPE: kon (M⁻¹ s⁻¹)

BINDER	VAL
TIGIT-SC69 (Fc fusion, VHH-Fc fusion in assay) VHH: EVQLVESGGGLVQPGGSLRLSCAASGGTFNGRAMGWFRQAPGKEREFVAAISSIGDTYYADSVKGRFTISADNSKNTAYLQMNSLKPEDTAVYYCARWRLDRRQGFYYAMDVWGQGTLVTVSS	219000
TIGIT-SC39 (Fc fusion, VHH-Fc fusion in assay) VHH: EVQLVESGGGLVQPGGSLRLSCAASGRTVSSHAMGWFRQAPGKEREFVAAITSSGSTYYADSVKGRFTISADNSKNTAYLQMNSLKPEDTAVYYCASSYSSSSGLGDIWGQGTLVTVSS	342000
